quantity: melting point

In plain terms, `COc1ccc2c(c1)cc1c(C)noc(=O)n12` has a documented melting point of 217 to 220 °C

compound `COc1ccc2c(c1)cc1c(-c3ccc(Cl)cc3)noc(=O)n12` , melting point observed: 227 to 230 °C

response.value for COc1ccccc1-c1noc(=O)n2c1cc1ccccc12 [Example D1] (field: melting point) = 160 to 162 °C

# compound `COc1cccc(C2=C(c3ccccc3)C(=O)n3c2cc2cc(OC)ccc23)c1` ; its melting point = 111 to 113 °C

response.value for `COc1cccc(-c2noc(=O)n3c2cc2cc(OC)ccc23)c1` (field: melting point) = 171 to 173 °C

Lab note: measured melting point of `COc1ccc2c(c1)cc1n2C(=O)C(c2ccccc2)=C1c1ccc(Cl)cc1` was 152 to 155 °C

// COc1cccc(-c2noc(=O)n3c2cc2ccccc23)c1 [Example D2] : melting point value = 129 to 130 °C

Consider `COc1ccc2c(c1)cc1c(-c3ccc(Cl)cc3)nn(-c3ccccc3)c(=O)n12` . Its measured melting point is 155 to 158 °C

// melting point value for `COc1ccc2c(c1)cc1c(-c3ccccc3)noc(=O)n12` : 198 to 200 °C

Lookup result for `COc1ccc(C2=C(c3ccc(F)cc3)C(=O)n3c2cc2cc(OC)ccc23)cc1` ; measured melting point: 157 to 160 °C

Form: compound = `CCc1noc(=O)n2c1cc1cc(OC)ccc12` ; melting point = 208 to 212 °C

* * *

assayName: General toxicity LD50 (i.p.)
runConditions: nude, mouse, in vivo, ip, read-out: LD 50 (general toxicity)
Description: In order to determine the availability and effectiveness in the animal model (nude mouse), the cell lines HeLa/KB, MCF-7 and L1210 were cultured in hollow fibers, which are implanted i.p. or s.c. (Hollingshead et al., Life Sciences 57, 131-41, 1995). The test substance D-80816 is administered four times […]. in a dose of 100 mg/kg. At the end of the therapy on day 5, the fibers are explanted and the cell vitality of the tumor cells obtained is determined by means of the XTT assay. […]
quantity: LD50

For reference, reported LD50 for COc1cccc(C2=C(c3cccc(OC)c3)c3cc4cc(OC)ccc4n3C2=O)c1 [Example F3] stands at > 1000 mg/kg

* * *

System: SK-OV-3 (HTB77) cells
assayName: XTT cytotoxicity (proliferation) test, SK-OV-3
Assay type: cell-based
runConditions: Homo sapiens, concentration 3.16 μg/mL, 45 h incubation, read-out: percentage inhibition SK-OV-3
quantity: inhibition at 3.16 µg/mL (%)
Note: unit % is implicit; provide only the numeric part.

// inhibition at 3.16 µg/mL value for `COc1cccc(C2=C(c3cccc(OC)c3)c3cc4cc(OC)ccc4n3C2=O)c1` : 66.1

Record `COc1ccc(C2=C(c3ccc(F)cc3)C(=O)n3c2cc2cc(OC)ccc23)cc1` . Reported inhibition at 3.16 µg/mL: 6.6

inhibition at 3.16 µg/mL measured on `COc1cccc(C2=C(c3ccccc3)C(=O)n3c2cc2cc(OC)ccc23)c1` = 0

Lab note: measured inhibition at 3.16 µg/mL of `COc1ccc2c(c1)cc1c(-c3ccccc3)noc(=O)n12` was 68.9

Short answer for `COc1ccc2c(c1)cc1c(-c3ccc(Cl)cc3)noc(=O)n12` : inhibition at 3.16 µg/mL was 55.2
